target: Menin (Homo sapiens, UniProt O00255); assay: Inhibition of FAM-probe binding to Menin (unknown origin) after 60 mins by fluorescence polarization competitive binding assay
Sequence (O00255 whole entry): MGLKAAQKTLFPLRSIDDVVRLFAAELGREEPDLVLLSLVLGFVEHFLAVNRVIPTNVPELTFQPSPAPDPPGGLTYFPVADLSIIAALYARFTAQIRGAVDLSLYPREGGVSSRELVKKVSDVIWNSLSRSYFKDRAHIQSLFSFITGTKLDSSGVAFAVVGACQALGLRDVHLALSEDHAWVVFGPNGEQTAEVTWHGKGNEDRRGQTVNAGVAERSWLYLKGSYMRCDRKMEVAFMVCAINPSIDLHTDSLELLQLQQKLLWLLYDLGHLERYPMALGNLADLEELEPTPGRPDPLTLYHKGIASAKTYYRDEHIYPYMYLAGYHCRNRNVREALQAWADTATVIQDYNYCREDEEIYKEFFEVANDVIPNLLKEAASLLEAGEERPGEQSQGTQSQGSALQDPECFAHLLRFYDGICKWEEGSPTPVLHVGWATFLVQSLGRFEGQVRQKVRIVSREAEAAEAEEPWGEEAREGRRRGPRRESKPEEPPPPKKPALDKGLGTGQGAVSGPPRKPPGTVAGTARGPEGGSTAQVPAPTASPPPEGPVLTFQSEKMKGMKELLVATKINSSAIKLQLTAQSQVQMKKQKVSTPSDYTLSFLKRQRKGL
Simple rule here: IC50 less than 20 nM is T, otherwise F.

# count of solved cases: 3
N#Cc1ccc(N2CCC(N3CCC(C4(C5CCCC5)NCCc5ccccc54)CC3)CC2)cc1 (stereo not given); F
N#Cc1ccc(N2CC(CN3CCC(C(C#N)(c4ccccc4)C4CCCC4)CC3)C2)cc1 (racemic); F
N#Cc1ccc(OCCN2CCC(C3(C4CCCC4)NCCc4ccccc43)CC2)cc1 (stereo not given); F

[in] Lab log: compare recorded IC50 with 20 nM; is it strictly lower for O=S(=O)(c1ccc(N2CC(CN3CCC(C4(C5CCCC5)NCCc5ccccc54)CC3)C2)cc1)C1CCCC1 (stereo not given) ?
[out] T
